Data provenance is PubChem BioAssay AID372.

Biological target: Gag-Pol polyprotein (Human immunodeficiency virus type 1 group M subtype B (isolate HXB2)) (UniProt P04585)
Experiment: RNase H inhibition, HIV 1 Gag Pol polyprotein, FRET biochemical assay, screening (AID 372)
Details: HIV-1 RT RNase H, FRET RNA/DNA substrate fluorescence; at 10 µM; hits give high values
In all, about 100,000 compounds went through this assay and about 770 (0.77%) were called active. The sample holds actives, similar compounds and a random draw of the others, so the mix is not that of the screen.
readout-label: inhibition (%)

Cc1cccc(N2C(=O)NC(=O)/C(=C\c3cccn3-c3ccccc3)C2=O)c1
22
Cc1cccc(N2C(=O)NC(=O)/C(=C\c3cccn3-c3ccc(Br)cc3)C2=O)c1
27
Cc1cc(Cl)ccc1NC(=O)CN(c1cccc(Br)c1)S(C)(=O)=O
12
CC1=C(C(=O)OCCOc2ccccc2)C(c2ccc(O)cc2)C2=C(CC(c3ccccc3)CC2=O)N1 (stereo not drawn)
9
CCOC(=O)c1sc(N/N=C/c2ccccc2)nc1C
47
Cc1ccc(-c2n[nH]c(=S)n2/N=C/c2ccc(O)cc2O)cc1
8
Cc1ccc([N+](=O)[O-])cc1NC(=O)c1cccc2c1C(=O)c1ccccc1-2
0
CCOC(=O)C1=C(C)N=c2s/c(=C\c3ccc(-c4cc(C)c(C)c([N+](=O)[O-])c4)o3)c(=O)n2C1c1ccc(OC)c(OC)c1 (stereo not drawn)
51
CCOC(=O)C1=C(C)NC2=C(C(=O)CC(c3ccc(OC)cc3)C2)C1c1ccc(O)cc1 (stereo not drawn)
11
O=C(Nc1ccc(S(=O)(=O)N2CCCCCC2)cc1)c1ccc(Cl)cc1Cl
8
Cc1ccc(-c2n[nH]c(=S)n2/N=C/c2ccc(O)cc2)cc1
9
Cc1ccc(-c2n[nH]c(=S)n2N=Cc2ccc(-c3ccccc3)cc2)cc1
56
CC1=C(C(=O)Nc2ccc(Br)cc2)C(c2ccc(C)cc2)NC(=S)N1 (stereo not drawn)
57
CCOC(=O)C1=C(C)N=c2s/c(=C\c3ccc(-c4ccc([N+](=O)[O-])cc4)o3)c(=O)n2C1c1ccc2c(c1)OCO2 (stereo not drawn)
41
O=C1NC(=O)N(c2cccc(F)c2)C(=O)/C1=C/c1cccn1-c1ccc(Cl)cc1
59
CSCCOC(=O)C1=C(C)NC(=O)NC1c1ccc([N+](=O)[O-])cc1 (stereo not drawn)
22
O=C(Nc1ccccc1)c1ccccc1C(=O)OCCCCCc1cccs1
1
Cc1ccc(-c2n[nH]c(=S)n2N=Cc2ccc(O)c(O)c2)cc1
60
CCOC(=O)c1sc(N/N=C/c2ccccc2O)nc1C
58
Cc1ccc(/C(O)=C2/C(=O)C(=O)N(c3ccccc3)C2c2ccc([N+](=O)[O-])cc2)cc1 (stereo not drawn)
0
COc1cc(/C=N/n2c(-c3ccc(C)cc3)n[nH]c2=S)ccc1O
8
Cc1ccc([N+](=O)[O-])cc1/C=C1/SC(=S)N(c2cccc(C(F)(F)F)c2)C1=O
5
CCOC(=O)c1sc(N/N=C/c2ccccc2C(F)(F)F)nc1C
15
O=C1NC(=O)N(c2ccccc2)C(=O)/C1=C\c1cccn1-c1ccc([N+](=O)[O-])cc1
22
CCOC(=O)C1=C(C)N=c2s/c(=C\c3ccc(-c4cc(C)c(C)c([N+](=O)[O-])c4)o3)c(=O)n2C1c1ccc2c(c1)OCO2 (stereo not drawn)
50
CC(c1ccccc1)C1CC(=O)N(c2ccccc2)C1=O (stereo not drawn)
0
Oc1ccc(/C=N/n2c(-c3ccccc3)n[nH]c2=S)cc1O
55
O=C(Nc1ccc(N2CCCCC2)cc1)c1ccc(-c2ccccc2)cc1
28
O=C(CSc1nc2ccccc2o1)c1ccc(-c2ccccc2)cc1
14
CC1=C(C(=O)OCCc2ccccc2)C(c2ccc(O)cc2)C2=C(CCCC2=O)N1 (stereo not drawn)
2
CC(/C=C/c1ccccc1)=N/NS(C)(=O)=O
3
CCOC(=O)C1=C(C)N=c2s/c(=C\c3ccc(-c4cc(C)c(C)c([N+](=O)[O-])c4)o3)c(=O)n2C1c1ccc(Cl)cc1 (stereo not drawn)
37
O=C1NC(=O)N(c2ccccc2)C(=O)/C1=C/c1cccn1-c1ccc(Br)cc1
29

====

Target: Gag-Pol polyprotein (Human immunodeficiency virus type 1 group M subtype B (isolate HXB2))
Experiment: RNase H inhibition, HIV 1 Gag Pol polyprotein, FRET biochemical assay, screening (AID 372)
Details: HIV-1 RT RNase H, FRET RNA/DNA substrate fluorescence; at 10 µM; hits give high values
Hit rate of the full screen: of about 100,000 compounds, about 770 (0.77%) were called active. The sample as a whole holds a higher share of actives than the screen did.
Entries and their inhibition values follow.
readout-label: inhibition (%)

Cc1cccc(C2=N/C(=C/c3ccc([N+](=O)[O-])cc3)C(=O)N2c2ccc(O)cc2)c1
44
COc1cc(NC(=O)c2ccccc2F)ccc1NC(=O)c1cc2ccccc2o1
24
Cc1ccc(C(=O)Nc2ccc3nn(-c4cccc([N+](=O)[O-])c4)nc3c2)cc1
54
CC(=O)Nc1ccc(N2C(=O)/C(=C/c3ccc([N+](=O)[O-])cc3)C=C2c2ccccc2)cc1
0
CC(=O)N1CCN(c2ccc(NC(=O)c3ccc(-c4ccccc4)cc3)cc2)CC1
5
CCOc1cc(C(=O)Nc2ccc(NC(=O)c3cc4ccccc4o3)c(OC)c2)cc(OCC)c1OCC
11
Cc1ccc(N2C(=O)NC(=O)/C(=C/c3ccc(-c4ccc(Cl)cc4Cl)o3)C2=O)cc1
36
c1ccc(Nc2nc(-c3ccccc3)[n+](-c3ccccc3)s2)cc1
30
CC(Nc1cc(Cl)ccc1[N+](=O)[O-])c1ccc(Br)cc1 (stereo unspecified)
54
COc1ccc(-n2nc3ccc(NC(=O)c4ccc(OC)c([N+](=O)[O-])c4)cc3n2)cc1
3
COc1ccc(C(=O)Nc2ccc3nn(-c4ccc(C)c(Cl)c4)nc3c2)cc1[N+](=O)[O-]
53

====

Biological target: Gag-Pol polyprotein (Human immunodeficiency virus type 1 group M subtype B (isolate HXB2))
Test: RNase H inhibition, HIV 1 Gag Pol polyprotein, FRET biochemical assay, screening (AID 372)
Conditions: HIV-1 RT RNase H, FRET RNA/DNA substrate fluorescence; at 10 µM; hits give high values
Screen size: about 100,000 compounds; about 770 (0.77%) were called active. The sample holds actives, similar compounds and a random draw of the others, so the mix is not that of the screen.
The entries below are paired with their reported inhibition.
readout-label: inhibition

CCOc1cc(/C=C(\C#N)c2nc3ccccc3s2)ccc1O
16% (inactive)
O=C(Nc1cccc(Cl)c1)Nc1nc2ccc(Br)cc2s1
35% (inactive)
COc1ccc(C=C2C(=O)NC(=S)NC2=O)cc1OC(=O)c1cccc2ccccc12
26% (inactive)
CCOc1cc(/C=N/NC(=O)C(=O)NCc2ccc(Cl)cc2)ccc1O
1% (inactive)
COc1cc(/C=C(\C#N)c2nc3ccccc3s2)cc(Br)c1O
5% (inactive)
Cc1nonc1-c1cn2cc(Cl)ccc2n1
8% (inactive)
CCCc1cc2c(-c3ccccc3)cc(=O)oc2cc1OCC(=O)O
9% (inactive)

====

Target: Gag-Pol polyprotein (Human immunodeficiency virus type 1 group M subtype B (isolate HXB2))
Assay: RNase H inhibition, HIV 1 Gag Pol polyprotein, FRET biochemical assay, screening (AID 372)
Conditions: HIV-1 RT RNase H, FRET RNA/DNA substrate fluorescence; at 10 µM; hits give high values
The campaign covered roughly 100,000 compounds. About 770 (0.77%) were called active. Many of the other results were omitted from the sample, so actives are more common in it than they were.
readout-label: inhibition (%)

COc1ccc(CCC(=O)Nc2sc3c(c2C(N)=O)CCCCCC3)cc1
12
COC(=O)c1c(NC(=S)Nc2ccccc2)sc2c1CCCC2
59
Clc1cccc(NCc2ccncc2)c1
2
CCc1ccc2oc(-c3ccc(C)c(NC(=O)COc4ccc(Cl)cc4)c3)nc2c1
52
Cc1ccc2oc(-c3ccc(NC(=O)COc4ccc(Br)cc4)cc3)nc2c1
59
Cc1ccc2oc(-c3ccc(NC(=O)COc4ccc(Cl)cc4)cc3)nc2c1
28
COc1ccc(OC)c(CNCc2ccc3c(c2)OCO3)c1
6
COc1ccc(OCC(=O)Nc2ccc(-c3nc4cc(C)ccc4o3)cc2)cc1
19
Cc1ccccc1CNS(=O)(=O)c1cccs1
0
COc1ccc(OC)c(C2NC(=S)NC(C)=C2C(=O)OCCc2ccccc2)c1 (configuration not stated)
21
COc1cc2ccccc2cc1C(=O)Nc1sc2c(c1C(N)=O)CCCC2
59
Cc1cc2nc(-c3ccc(C)c(NC(=O)c4cccc([N+](=O)[O-])c4)c3)oc2cc1C
15

====

Target: Gag-Pol polyprotein (Human immunodeficiency virus type 1 group M subtype B (isolate HXB2))
Assay: RNase H inhibition, HIV 1 Gag Pol polyprotein, FRET biochemical assay, screening (AID 372)
Settings: HIV-1 RT RNase H, FRET RNA/DNA substrate fluorescence; at 10 µM; hits give high values
About 770 (0.77%) of roughly 100,000 compounds were called active. This excerpt belongs to a sample that is enriched for actives.
Listed next: entries and their corresponding inhibition.
readout-label: inhibition (%)

CC(=O)C(=Nc1ccc(C)cc1C)NNc1ccc(Cl)c(C(N)=O)c1
11
Cc1ccc(CSCCNC(=O)CN(c2cccc(C)c2)S(C)(=O)=O)cc1
18
O=C1/C(=C/c2ccc(F)cc2)SC(=S)N1c1ccc(F)cc1
17
COc1cc(/C=C2\SC(=O)N(c3ccccc3)C2=O)ccc1O
27
COc1ccc(N(CC(=O)NCCSCc2ccc(Cl)cc2)S(C)(=O)=O)cc1Cl
38
O=c1[nH]n(-c2ccccc2)c(O)c1/C=C1\C=Nc2ccccc21
10
O=C1/C(=C/c2ccc(O)c(O)c2)SC(=S)N1c1cccc(F)c1
84
Cn1c(O)c(N=NC(=O)C2COc3cc4ccccc4cc3O2)c2ccccc21 (stereo not drawn)
50
